test: inhibitors of hydroxyurea-induced Chk1 phosphorylation, primary screen, imaging, HeLa, phospho-Chk1 antibody, percent positive cells (AID 1186); settings: hydroxyurea-induced phospho-Chk1 immunofluorescence imaging, higher = more signal
Recorded z-score split into classes range A: < -0.4; range B: ≥ -0.4 and < 0.1; range C: ≥ 0.1

- CN1C(=O)C2C=CC(C(O)c3cc(C(F)(F)F)cc(C(F)(F)F)c3)N(N3CCCCC3)C2C1=O (centres undefined): range A
- O=C1OCCC/C=C\[C@H]2OC34C=CCN(Cc5ccccc5)C(=O)[C@H]3N(CCCCCCO)C(=O)[C@@H]4C12 (some centres undefined): range B
- C=CCN1C(=O)[C@]2(O[C@H](CCO)[C@@H]([Si](C)(C)c3ccc(OC)cc3)[C@@H]2C)c2cc(N3C(=O)c4cccc5cccc3c45)ccc21: range A
- CCCC#C[Si](O[C@H](CC)c1cn([C@H](CO)Cc2ccccc2)nn1)(C(C)C)C(C)C: range C
- C=CC[C@@]1(C(=O)N(C)C)N=C(c2ccc(OCCCO)cc2)O[C@@H]1c1ccccc1N=[N+]=[N-]: range B
- COc1cc2c(cc1OC)CN(C(=O)[C@H]1[C@@H]3C(=O)O[C@@H](c4ccccc4)[C@@H](c4ccccc4)N3[C@@H](c3ccc(O)cc3)[C@]13C(=O)Nc1ccc(C#CC4=CCCCC4)cc13)CC2: range C
- C=CCOC(=O)[C@H]1[C@@H]2C(=O)O[C@@H](c3ccccc3)[C@@H](c3ccccc3)N2[C@@H](c2ccc(OCCOC(=O)[C@H]3C[C@H]4C(=O)N[C@@H](CC(C)C)C(=O)N4[C@H]3c3ccc(O)cc3)cc2)[C@]12C(=O)Nc1ccc(I)cc12: range C
- COc1ccc([Si](C)(C)[C@H]2[C@H](CCO)O[C@@]3(C(=O)N(Cc4ccc(N5C(=O)COc6ccccc65)cc4)c4ccccc43)[C@@H]2C)cc1: range A
- O=C1O[C@H](c2ccccc2)[C@H](c2ccccc2)N2[C@H]1[C@@H](C(=O)NC[C@H](O)c1ccccc1)[C@]1(C(=O)Nc3ccccc31)[C@H]2c1ccc(OCCO)cc1: range B
- COC(=O)[C@@]1(Cc2ccc(OC)cc2)[C@H]2c3cc(C(=O)N(C)C)n(CCN4CNCC4=O)c3C[C@H]2CN1C(=O)c1ccccc1: range A
- C=C(C)C1C(=C)CN([C@H](CO)c2ccccc2)C1=O (some centres undefined): range B
- Cc1ccc(S[C@]2(C(=O)NC(C)C)CC(=O)N(Cc3ccccc3Cl)[C@@H]2c2ccc(CO)cc2I)cc1: range C
- COc1ccc(CCNC(=O)[C@@]2(Sc3ccc(C)cc3)CC(=O)N(C3CCCCC3)[C@@H]2c2ccc(CO)cc2I)cc1: range C
